- System: HeLa Kyoto;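 note: HeLa Kyoto cells arrested at G1/S by double thymidine block, proteins quantified by TMT10plex mass spectrometry in mild NP-40 versus SDS extracts, three biological replicates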
- Protocol description: solubility in G1/S (NP-40 vs SDS abundance) (log2 ratio); higher = more soluble
- Test conditions: cell cycle stage: G1/S
Recorded metric: solubility in G1/S (log2)
// keep it numeric: no unit symbol after the value

[
  {
    "Seq string": "MAERGRKRPCGPGEHGQRIEWRKWKQQKKEEKKKWKDLKLMKKLERQRAQEEQAKRLEEEEAAAEKEDRGRPYTLSVALPGSILDNAQSPELRTYLAGQIARACAIFCVDEIVVFDEEGQDAKTVEGEFTGVGKKGQACVQLARILQYLECPQYLRKAFFPKHQDLQFAGLLNPLDSPHHMRQDEESEFREGIVVDRPTRPGHGSFVNCGMKKEVKIDKNLEPGLRVTVRLNQQQHPDCKTYHGKVVSSQDPRTKAGLYWGYTVRLASCLSAVFAEAPFQDGYDLTIGTSERGSDVASAQLPNFRHALVVFGGLQGLEAGADADPNLEVAEPSVLFDLYVNTCPGQGSRTIRTEEAILISLAALQPGLIQAGARHT [C9ORF114]",
    "solubility in G1/S (log2)": -1.68
  },
  {
    "Seq string": "MGGGWWWARAARLARLRFRRSLLPPQRPRSGGARGSFAPGHGPRAGASPPPVSELDRADAWLLRKAHETAFLSWFRNGLLASGIGVISFMQSDMGREAAYGFFLLGGLCVVWGSASYAVGLAALRGPMQLTLGGAAVGAGAVLAASLLWACAVGLYMGQLELDVELVPEDDGTASAEGPDEAGRPPPE [TMEM160]",
    "solubility in G1/S (log2)": -0.112
  }
]

Next up:
Give its solubility in G1/S (log2) value. Item: MGATGDAEQPRGPSGAERGGLELGDAGAAGQLVLTNPWNIMIKHRQVQRRGRRSQMTTSFTDPAISMDLLRAVLQPSINEEIQTVFNKYMKFFQKAALNVRDNVGEEVDAEQLIQEACRSCLEQAKLLFSDGEKVIPRLTHELPGIKRGRQAEEECAHRGSPLPKKRKGRPPGHILSSDRAAAGMVWKPKSCEPIRREGPKWDPARLNESTTFVLGSRANKALGMGGTRGRIYIKHPHLFKYAADPQDKHWLAEQHHMRATGGKMAYLLIEEDIRDLAASDDYRGCLDLKLEELKSFVLPSWMVEKMRKYMETLRTENEHRAVEAPPQT [DNTTIP1] 0.512
